system: TRKC; construct: gene NTRK3; conditions: concentration: 1 μM,replicates: in singlicate; n = 1;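 also: KINOMEscan kinase panel screen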
Listed next: entries and their corresponding %Inh.
RESULT TYPE: %Inh (%)

• Cn1ccc2ncnc(Oc3ccc(NC(=O)Nc4cnn(C(C)(C)C)c4)c(Cl)c3)c21 = 82
• Cl.c1ccc(Oc2ccc(Nc3ccnc4cc(-c5ccc(CN6CCNCC6)o5)ccc34)cc2)nc1 = 15
• CN(c1ccc2c(c1)nc(NCc1ccc(F)cc1)n2C)c1ccnc(Nc2ccc(CS(C)(=O)=O)cc2)n1.Cl = 0
• Cn1ccc2ncnc(Oc3ccc(NC(=O)Nc4cc(C(C)(C)C)on4)c(Cl)c3)c21 = 99.1
• COc1cc2ncn(-c3cc(OCC4CCCCC4)c(C(N)=O)s3)c2cc1OC = 0
• Cc1ccc2c(-c3ccnc(Nc4ccc(C(F)(F)F)cc4)n3)cnn2n1 = 0
• CCOC(=O)N1CCC(n2cnc(-c3ccc(F)cc3)c2-c2ccnc(N)n2)CC1 = 24
• CNC(=O)c1ccccc1Nc1nc(Nc2cccc(CS(C)(=O)=O)c2)ncc1C.O=CO = 97.4
• CN1CCN(CCCNc2nccc(-c3c(-c4ccc(F)cc4)nn4cc(C(N)=O)ccc34)n2)CC1 = 6
• CS(=O)(=O)c1cccc(CNc2nc(Nc3ccc4c(c3)[C@@H]3C[C@@H]4CNC3=O)ncc2C(F)(F)F)c1 = 90.4
• CCn1c(-c2nonc2N)nc2cncc(Br)c21 = 44
• Cn1ccc2ncnc(Oc3ccc(NC(=O)Nc4cccc(C(F)(F)F)c4)c(F)c3)c21 = 96.4
• CC(C)c1nc(-c2cccc(NS(=O)(=O)c3ccccc3)c2)c(-c2ccnc(Nc3ccc4c(c3)CN(C)CC4)n2)s1 = 0
• CS(=O)c1ccc(-c2coc3ccc(-c4n[nH]c(=O)o4)cc23)cc1 (centres unmarked) = 39
• Cn1ccc2ncnc(Oc3ccc(NC(=O)Nc4cncc(C(F)(F)F)c4)c(Cl)c3)c21 = 88
• Cl.Cl.NC[C@H](CC1CCCCC1)NC(=O)c1ccc(-c2ccnc3[nH]ccc23)s1 = 54
• CC(C(=O)NC1CCN(c2ccnc(Nc3ccc(F)cc3)n2)C1)c1ccc(Cl)cc1 (centres unmarked) = 0

---

test system: LKB1; construct: gene STK11; conditions: concentration: 1 μM,replicates: in singlicate; n = 1
RESULT TYPE: %Inh (%)

* CS(=O)(=O)c1cccc(CNc2nc(Nc3ccc4c(c3)[C@@H]3C[C@@H]4CNC3=O)ncc2C(F)(F)F)c1 | 12
* C[C@@H](Oc1cc(-n2cnc3cc(-c4cnn(C)c4)ccc32)sc1C(N)=O)c1ccccc1Cl [GSK580432] | 57
* Cn1ccc2ncnc(Oc3ccc(NC(=O)Nc4cccc(C(F)(F)F)c4)c(F)c3)c21 | 0
* CC(=O)c1c(-c2ccncc2)[nH]c(-c2ccncc2)c1C [GW493036] | 0

---

// reported %Inh for each item listed
tested on: EPHB1; conditions: concentration: 1 μM,replicates: in singlicate; n = 1
RESULT TYPE: %Inh (%)

• COc1ccc(Nc2nccc(N3CCC(NC(=O)c4cccc(C#N)c4)C3)n2)cc1 (stereo not drawn) [GSK1379730] = 0
• COc1cccc(CNC(=O)NC2CCN(c3ccnc(Nc4cc(OC)c(OC)c(OC)c4)n3)C2)c1 (stereo not drawn) [GSK1379765] = 13
• Cc1ccc(Nc2ccnc(Nc3ccc4c(c3)CS(=O)(=O)C4)n2)cc1O.Cl [GW579362] = 78
• COC(=O)c1cccc(NC(=O)NC2CCN(c3ccnc(NCc4ccc(F)cc4)n3)CC2)c1 [GSK1379860] = 14
• Cn1ccc2ncnc(Oc3ccc(NC(=O)Nc4cnn(C(C)(C)C)c4)c(Cl)c3)c21 = 15
• COC(=O)Nc1nc2cc(Oc3ccc(NC(=O)Nc4cc(C(F)(F)F)ccc4Cl)cc3)ccc2[nH]1.Cl [GW697465] = 62
• Cl.c1ccc(Oc2ccc(Nc3ccnc4cc(-c5ccc(CN6CCNCC6)o5)ccc34)cc2)nc1 [GW567142] = 0
• Cc1ccc(CC(=O)N2CCc3cc(-c4cn(C)c5ncnc(N)c45)ccc32)cc1 [GSK2634758] = 7
• COc1cc2c(Nc3ccc(NC(=O)c4ccccc4)cc3)ncnc2cc1OCCCN1CCOCC1 [GSK301329] = 20
• CC(=O)Nc1nc2cnc(Nc3cc(NC(=O)c4cccc(CC(C)(C)C#N)c4)ccc3C)nc2s1 = 11
• NC(=O)c1ccc(-c2cc3ncnc(SCC(=O)O)c3s2)cc1 = 0
• CCn1c(-c2nonc2N)nc2cncc(CNC3CCNCC3)c21.Cl [SB-747651] = 12
• Cn1ccc2ncnc(Oc3ccc(NC(=O)Nc4cccc(C(F)(F)F)c4)c(F)c3)c21 = 80
• Cc1cccc(-c2nc(Nc3ccncc3)c3sccc3n2)n1 [GW869641] = 15
• C[C@@H]1CNc2c(sc3ccc4nc(-c5ccncc5)ccc4c23)C(=O)N1 = 0
• CCN1CCN(CCCC(=O)Nc2n[nH]c3nc(-c4ccc(O)cc4)c(Br)cc23)CC1 [SB-731579] = 0
• CC(C(=O)NC1CCN(c2ccnc(Nc3ccc(F)cc3)n2)C1)c1ccc(Cl)cc1 (stereo not drawn) [GSK1379713] = 10
• Cn1ccc2ncnc(Oc3ccc(NC(=O)Nc4cncc(C(F)(F)F)c4)c(Cl)c3)c21 = 45
